assay: P. aeruginosa biofilm formation inhibitors, primary screen, PAO1 strain, BacTiter-Glo luminescence, LB-PBS (AID 1144); conditions: 12 h, higher = more signal
Attribute Measured: z-score

Molecule	Attribute Measured	Quantitative Result
COC(=O)[C@]1(Cc2ccccc2CN=[N+]=[N-])N=C(c2ccc(OCCCO)cc2)O[C@@H]1c1ccccc1N=[N+]=[N-]	z-score	-0.332
COC(=O)[C@@]1(Cc2ccc(F)cc2)[C@H]2c3cc(C(=O)N4CCCC4)n(CCc4c[nH]c5cc(F)ccc45)c3C[C@H]2CN1C(=O)c1ccccc1	z-score	0.449
CCCCCN1CC=CC23O[C@@H]4/C=C\CCCOC(=O)C4[C@H]2C(=O)N(CCO)[C@@H]3C1=O (some centres not stated)	z-score	-2.97
CCOC(=O)C[C@H]1[C@H](OC(=O)c2ccccc2-c2ccccc2)[C@@H](NC(=O)CC(C)C)c2cc(OCCCO)ccc2N1C(=O)c1ccccc1	z-score	-0.829
C=CC[C@]1(C(=O)NCC(O)CO)N=C(c2ccc(OCCCO)cc2)O[C@H]1c1ccccc1CN=[N+]=[N-] (some centres not stated)	z-score	0.381
CCCCCCc1nc(Cc2cc(OC)c(OC)c(OC)c2)c(C)c2c1[Si](C(C)C)(C(C)C)OC2	z-score	-1.44
CC(C)c1ccc(NN2C(C(O)C(C)c3ccccc3)C=CC3C(=O)N(c4ccccc4)C(=O)C32)cc1 (configuration not stated)	z-score	-0.692

----------
Quick list: z-score per entry.
assay: MM1S myeloma cell viability, profiling panel, resazurin fluorescence, basal, 24 h, PK04 Diversity Set (AID 1174); details: higher = more signal, called active from +8 up or from −8 down;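 further: MM1S multiple myeloma cell line; test concentration not given here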

Chemical String	z-score
COCCOC(=O)N1C(=O)[C@@]2(c3cc(C#CCNC(N)=O)ccc31)[C@H](c1ccccc1OCCO)N1[C@H](c3ccccc3)[C@H](c3ccccc3)OC(=O)[C@H]1[C@@H]2C(=O)N1CCCCCCC1	0.723
C=C[C@@H](CO)NS(=O)(=O)c1ccc(Br)cc1	1.16
COc1c(C)cc(-c2cc3c(c(CCc4ccccc4)n2)[Si](C(C)C)(C(C)C)O[C@H]3c2ccccc2)cc1C	0.135
O=C1O[C@@H](c2ccccc2)[C@@H](c2ccccc2)N2[C@@H](c3ccc(OCCO)cc3)[C@]3(C(=O)Nc4ccc(C#CC5=CCCCC5)cc43)[C@@H](C(=O)Nc3nc4ccccc4s3)[C@H]12	-1.21
O=C/C=C/c1ccc(-c2ccccc2)cc1	-1.08
COC(=O)[C@H]1N=C(c2ccc(OCCCO)cc2)O[C@H]1c1ccccc1N=[N+]=[N-]	-0.971
CCCCC(=C=CC[C@H](O)c1ccccc1OCCO)CCO	0.189
C=CC[C@H](O)c1ccc(O)c2ccccc12	-1.42

----------
target: NADPH oxidase 5 (Homo sapiens); experiment: NOX5-dependent H2O2 signal modulators, primary screen, NOX inhibitor project, cell-based, HEK293-NOX5, Amplex Red fluorescence (AID 1161); conditions: HEK293-NOX5, ionomycin, 45 min, higher = more signal
Label No if z-score falls below 0.5; label Yes in every other case.

Compound	Assayed Target	Discrete Label
COCCOC(=O)N1C(=O)[C@@]2(c3cc(C#CC4=CCCCC4)ccc31)[C@H](C(=O)N1CCCCCCC1)[C@H]1C(=O)O[C@H](c3ccccc3)[C@H](c3ccccc3)N1[C@@H]2c1ccccc1OCCO	NADPH oxidase 5 (Homo sapiens)	No
CC1CC/C=C\[C@H]2OC34C=CCN(C(C)C)C(=O)[C@H]3N(C(C)CO)C(=O)[C@@H]4C2C(=O)O1 (stereo not given in full)	NADPH oxidase 5 (Homo sapiens)	Yes
C=C(C)C1CN([C@H](CO)c2ccccc2)C(=O)/C1=C\c1ccccc1 (stereo not given in full)	NADPH oxidase 5 (Homo sapiens)	No
C=C(CCCC)C(=O)CC[C@@H](OC(C)=O)c1ccc(OCCO)cc1	NADPH oxidase 5 (Homo sapiens)	No
COC(=O)C1=CC(CCCO)=CC(c2ccc(CN3CCCC3)cc2)N(C)C=C1C(=O)OC (stereo not given)	NADPH oxidase 5 (Homo sapiens)	No
COCCCNC(=O)[C@@]1(Cc2ccccc2I)c2ccccc2C(=O)N(Cc2ccccc2OC)[C@H]1c1ccc(CO)cc1	NADPH oxidase 5 (Homo sapiens)	No
COc1cccc(C)c1NC(=O)O[C@H]1[C@H](OC(=O)Nc2ccccc2-c2ccccc2)[C@@H](OC(=O)Nc2ccccc2-c2ccccc2)[C@@H](OC)O[C@@H]1CO	NADPH oxidase 5 (Homo sapiens)	No
CC[C@@H]1C=C(C(=O)O)[C@H](c2cccc(Cl)c2)N1S(=O)(=O)c1ccc(C)cc1	NADPH oxidase 5 (Homo sapiens)	No
CC1(C)OB(/C=C\CC(OC(=O)c2ccncc2)c2ccccc2)OC1(C)C (stereo not given)	NADPH oxidase 5 (Homo sapiens)	No
CCCCCN1CC=CC23O[C@@H]4/C=C\CCCOC(=O)C4[C@H]2C(=O)N(CCO)[C@@H]3C1=O (stereo not given in full)	NADPH oxidase 5 (Homo sapiens)	Yes
C=CC[C@H](OC(=O)Nc1ccc(SC)cc1)c1ccc(O)c(F)c1	NADPH oxidase 5 (Homo sapiens)	No
[N-]=[N+]=NCc1ccccc1[C@H]1OC(c2ccc(OCCCO)cc2)=N[C@@]1(CCS(=O)(=O)c1ccccc1)C(=O)NCCN1CCOCC1	NADPH oxidase 5 (Homo sapiens)	Yes
CC[C@@H](O[Si](C#C[Si](C(C)C)(C(C)C)C(C)C)(C(C)C)C(C)C)c1cn([C@H](CO)Cc2ccccc2)nn1	NADPH oxidase 5 (Homo sapiens)	No
C=CCNC(=O)[C@@H]1[C@H]2C(=O)O[C@H](c3ccccc3)[C@H](c3ccccc3)N2[C@H](c2ccc(OCCO)cc2)[C@@]12C(=O)Nc1ccc(C#CC3=CCCCC3)cc12	NADPH oxidase 5 (Homo sapiens)	Yes
COC(=O)[C@@]1(Cc2ccc(F)cc2)[C@H]2c3cc(C(=O)N4CCCC4)n(Cc4ccc(OC(F)(F)F)cc4)c3C[C@H]2CN1C(=O)c1ccccc1	NADPH oxidase 5 (Homo sapiens)	No

----------
test system: Fibrinogen (Alexa647-labelled); experiment: fibrinogen binders on compound microarrays, profiling panel, artefact control for SMM control-protein annotation, biochemical, small-molecule microarray, 635/667 nm fluorescence (AID 1131); details: fibrinogen-A647 binding fluorescence, higher = more signal;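 further: z-score merges 667 nm fluorescence with per-spot signal-to-noise over triplicate slides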
Returns the class for an entry based on its composite z-score. Class ranges: 0 = under -0.06, 1 = from -0.06 up to 0.9, 2 = 0.9 and over

Molecule	Discrete Label
CC(C)(C)OC(=O)CC[C@@]1(C(N)=O)N=C(c2ccc(OCCCO)cc2)O[C@@H]1c1ccccc1CN=[N+]=[N-]	1
COc1cccc(C)c1NC(=O)O[C@H]1[C@H](OC(=O)Nc2ccccc2-c2ccccc2)[C@@H](OC(=O)Nc2ccccc2-c2ccccc2)[C@@H](OC)O[C@@H]1CO	2
C=C(C(=O)CC[C@@H](OC(=O)c1ccccc1-c1ccccc1C(=O)O)c1ccc(OCCO)cc1)C(C)C	1
CN1C(=O)C2C=CC(C(O)c3cccs3)N(N(c3ccccc3)c3ccccc3)C2C1=O (centres undefined)	2
COc1ccc(NN2C(C(O)c3ccc(F)cc3)C=CC3C(=O)N(C4CCCCC4)C(=O)C32)cc1 (centres undefined)	2
CC[C@H]1C2=C3C(CC[C@H]4C(OCc5ccc(F)cc5C(F)(F)F)OC[C@](C)([C@@H]34)N(C(=O)OC(C)(C)C)C2)C(COC(C)=O)C1COC(C)=O (some centres undefined)	2
COc1ccc([Si](C)(C)[C@H]2[C@H](CC(=O)N3CCC[C@H]3CO)O[C@@]3(C(=O)N(C)c4ccccc43)[C@@H]2C)cc1	1
CCCC[C@@H](O)C1=C(C)Cn2c(=O)n(-c3ccccc3)c(=O)n2[C@H]1CO	0
CC(C)(C)OC(=O)CC[C@]1(C(=O)N2CCOCC2)COC(c2ccc(OCCCO)cc2)=N1	1
C=CCOC(=O)[C@H]1[C@@H]2C(=O)O[C@@H](c3ccccc3)[C@@H](c3ccccc3)N2[C@@H](c2ccc(OCCOC(=O)[C@@H]3C[C@@H]4C(=O)N[C@@H](Cc5ccccc5)C(=O)N4[C@@H]3c3ccc(O)cc3)cc2)[C@]12C(=O)Nc1ccc(I)cc12	1
COC(=O)C(CC#Cc1ccc2c(c1)[C@]1(C(=O)N2)[C@H](c2ccc(OCCO)cc2)N2[C@H](c3ccccc3)[C@H](c3ccccc3)OC(=O)[C@H]2[C@@H]1C(N)=O)C(=O)OC	1
C=C(CCCC)C(=O)CC[C@H](OC(=O)c1ccccc1-c1ccccc1C(=O)O)c1cccc(OCCO)c1	0
CN1C(=O)C2C(C1=O)C1C=C(CCCO)C2C(C2CC2)N1C (centres undefined)	0
CC(C)C[C@H]1NC(=O)CNC(=O)[C@@]23C(=O)N[C@@H](Cc4ccccc4)C2[C@H](C)[C@@]2(C)O[C@H]2C3/C=C/C/C=C\CNC1=O (some centres undefined)	0
CC(=O)NCCCC[C@@H]1NC(=O)[C@H]2C[C@@H](C(=O)O)[C@@H](c3cccc(OCCO)c3)N2C1=O	2
CCOC(=O)C[C@H]1[C@H](OC(=O)c2ccc(-c3ccccc3)cc2)[C@@H](NC(=O)c2ccc(-c3ccccc3)cc2)c2cc(OCCCO)ccc2N1C(=O)c1ccccc1	1
COC(=O)[C@@]1(Cc2ccc(F)cc2)[C@H]2c3cc(C(=O)N4CCCC4)n(CCc4c[nH]c5cc(F)ccc45)c3C[C@H]2CN1C(=O)c1ccccc1	2
Cc1ccc(S[C@]2(C(=O)NCC(C)C)CC(=O)N(C(C)C)[C@@H]2c2ccc(CO)cc2I)cc1	0
NCCCCCCNC(=O)[C@@H]1C[C@@H]2C(=O)NCC(=O)N2[C@@H]1c1cccc(OCCO)c1	1
O=C1OCC=C[C@H]2OC34C=CCN(Cn5nnc6ccccc65)C(=O)[C@H]3N(CCO)C(=O)[C@@H]4[C@@H]12 (some centres undefined)	0
COc1ccc([Si](C)(C)[C@@H]2[C@@H](CC(=O)N3Cc4ccccc4C[C@H]3CO)O[C@]3(C(=O)N(Cc4ccc(I)cc4)c4ccccc43)[C@H]2C)cc1	1
COc1ccc(C#Cc2ccc3c(c2)[C@]2(C(=O)N3)[C@H](c3ccccc3OCCO)N3[C@H](c4ccccc4)[C@H](c4ccccc4)OC(=O)[C@H]3[C@@H]2C(=O)NC[C@H](O)c2ccccc2)cc1	1
CC(C)[Si]1(C(C)C)OCc2cc(-c3ccc(-c4ccc(Cl)c(Cl)c4)o3)nc(-c3ccc(Oc4ccccc4)cc3)c21	0
OCCCc1cc[n+](Cc2cc3c(cc2Br)OCO3)cc1	0
C=C[C@@H](CO)NS(=O)(=O)c1ccc(Br)cc1	0
[N-]=[N+]=NCc1ccccc1[C@H]1OC(c2ccc(OCCCO)cc2)=N[C@@]1(Cc1ccccc1N=[N+]=[N-])C(=O)N1CCOCC1	2
COCCOC(=O)N1C(=O)[C@@]2(c3cc(C#CCNC(N)=O)ccc31)[C@H](c1ccc(O)cc1)N1[C@H](c3ccccc3)[C@H](c3ccccc3)OC(=O)[C@H]1[C@@H]2C(=O)N1CCc2cc(OC)c(OC)cc2C1	1
O=C(O)C1=CC[C@H]2C(=O)N(c3ccccc3)C(=O)[C@@H]12	1
O=C(NCCN1CCOCC1)[C@@H]1c2ccccc2C(=O)N(CC23CC4CC(CC(C4)C2)C3)[C@H]1c1ccc(CO)cc1	2

Origin of the recorded values: PubChem BioAssay
